Test: NCI Yeast Anticancer Drug Screen. Data for the mlh1 rad18 strain (AID 175)
Reported Conditions: S. cerevisiae mlh1 rad18 strain growth inhibition; at 50.0 µM (retest, dose inferred, filed as 5.0)
This is part of a sample that, as a whole, favours compounds with a hit. Of some 79,000 tested, about 15% had one in any assay. Calls of active or inactive are those of the source. Rule as the data show it: active = growth inhibition above about 70%; inactive = the rest.
# output must be one of Y (active), N (inactive)

The examples below pair each entry with its known result.
1) CCCCC(CC)C(=O)[O][Sn]([CH2]CCC)([CH2]CCC)[O]C(=O)C(CC)CCCC (stereo unspecified): Y
2) CCOC(=O)C1N=[N+](c2ccccc2)C(=O)/C1=C\n1c(=S)[nH]c2ccc([N+](=O)[O-])cc21 (stereo unspecified): Y

Q. Dear all, I need the recorded test outcome for Cc1cccc(C(C)(C)C)c1NC(=O)C(C#N)C1=C(Cl)C(=O)c2ccccc2C1=O (stereo unspecified) , thank you.
A. Y

Q. Dear all, I need the recorded test outcome for `O=c1nc2n(Cc3ccccc3)c3ccccc3nc-2c(=O)[nH]1` , thank you.
A. N

Q. Dear all, I need the recorded test outcome for `CCC(=O)c1cc(C(=O)C(=S)SC)cc(C(=O)C(=S)SC)c1` , thank you.
A. Y

Q. Dear all, I need the recorded test outcome for `COC(=O)/C=C(/C(=O)OC)C(Cl)(Cl)Cl` , thank you.
A. Y

Q. Dear all, I need the recorded test outcome for `Cc1nc2ccccc2nc1NNc1ccccc1` , thank you.
A. N

Q. Dear all, I need the recorded test outcome for `O=C(NCCCl)Sc1ccc(Cl)cc1` , thank you.
A. Y

Q. Dear all, I need the recorded test outcome for `CC(C)(C)CC(C)(C)c1cc(O)c(O)c(CN2CCCCC2)c1` , thank you.
A. N

Q. Dear all, I need the recorded test outcome for `Cc1c(-c2ccccn2)ccc2ccccc12` , thank you.
A. N
